Values were extracted from ChEMBL document CHEMBL5058577.

test system: Fibroblast; assay: Multiplex assay against human fibroblast; format: toxicity, cell-based; conditions: 12 h, 10 µM, compound concentration 10 uM, replicate 1
reported metric: Population Mitotic Cells (%)
Give bare numbers, in %.

GET /value?item= Cc1cccc(NC(=O)CN2CCC(c3ccccn3)CC2)c1.Cl.Cl &field=Population Mitotic Cells (%) returns 40

GET /value?item= O=C(NCCN1CCC(n2c(=O)[nH]c3cc(Cl)ccc32)CC1)c1ccc(F)cc1 [HALOPEMIDE] &field=Population Mitotic Cells (%) returns 44

GET /value?item= CC(/C=C1\SC(=S)N(CCCC(=O)Nc2ccc(C(=O)O)c(O)c2)C1=O)=C\c1ccccc1 &field=Population Mitotic Cells (%) returns 43

GET /value?item= NCCc1cn(S(=O)(=O)c2c(Cl)nc3sccn23)c2ccccc12.O=C(O)C(=O)O &field=Population Mitotic Cells (%) returns 21

GET /value?item= CCCCC(=O)N(Cc1ccc(-c2ccccc2-c2nnn[nH]2)cc1)[C@H](C(=O)O)C(C)C &field=Population Mitotic Cells (%) returns 62

Could I get Population Mitotic Cells (%) for every one of these entries?
1. Cl.NCCc1ccc(O)c(O)c1 [DOPAMINE HYDROCHLORIDE]
2. CCCCC1=NC2(CCCC2)C(=O)N1Cc1ccc(-c2ccccc2-c2nnn[nH]2)cc1
3. Br.CS(=O)(=O)Nc1c(O)ccc2c1CCCC2C1=NCCN1 (stereo not given)
4. Cc1noc(-c2ccc(-c3ccc(CC(=O)O)cc3)cc2)c1NC(=O)O[C@H](C)c1ccccc1Cl
5. CC(C)COc1ccc(CNC(=O)N(Cc2ccc(F)cc2)C2CCN(C)CC2)cc1

Data returned:
1: 43; 2: 40; 3: 61; 4: 60; 5: 43

###

tested on: Fibroblast; test: Multiplex assay against human fibroblast; assay type: toxicity, cell-based; details: 24 h, 1 µM, compound concentration 1 uM, replicate 2
Provide the reported Population Fragmented Nuclei (%) of each item.
Numbers only, in %.

These solved cases illustrate the format of a correct answer.
GET /value?item= Cc1sc2c(c1C)C(c1ccc(Cl)cc1)=N[C@@H](CC(=O)NCCCCCCCCNC(=O)COc1cccc3c1C(=O)N(C1CCC(=O)NC1=O)C3=O)c1nnc(C)n1-2 (stereo partly drawn) &field=Population Fragmented Nuclei (%) returns 41

GET /value?item= Cc1cccc(NC(=O)CN2CCC(c3ccccn3)CC2)c1.Cl.Cl &field=Population Fragmented Nuclei (%) returns 26

GET /value?item= COc1cccc2c1c(NS(=O)(=O)c1ccc(Cl)s1)nn2Cc1cccc(CNC(=O)C(C)(C)O)c1 &field=Population Fragmented Nuclei (%) returns 28

GET /value?item= C[C@H](N)COC(=O)[C@@H](CCCCN)NC(=O)Cc1c(-c2ccc3ccccc3c2)[nH]c2c1ccc1ccccc12 &field=Population Fragmented Nuclei (%) returns 25

GET /value?item= N#Cc1c(Oc2cccc(OS(=O)(=O)CCCC(F)(F)F)c2)cccc1C(F)(F)F &field=Population Fragmented Nuclei (%) returns 33

Could I get Population Fragmented Nuclei (%) for every one of these entries?
1. CC[C@@H](C)Nc1nc(C)nc2c(-c3ccc(OC)nc3C)c(C)nn12 [PEXACERFONT]
2. CC(C)(C)c1cc(NC(=O)Nc2ccc(-c3cn4c(n3)sc3cc(OCCN5CCOCC5)ccc34)cc2)no1 [QUIZARTINIB]
3. O=C1[C@H](Cc2ccc(O)cc2)N2C(=O)CCN(C(=O)NCc3ccccc3)[C@H]2CN1Cc1cccc2ccccc12

Data returned:
1: 35; 2: 25; 3: 30

###

Provide the reported Total Cell Count of each item.
system: U2OS; assay: Multiplex assay against U2OS; assay type: toxicity, cell-based; conditions: human, 48 h, 10 µM, compound concentration 10 uM, replicate 2
Give bare numbers.

GET /value?item= CC[C@@H](C)Nc1nc(C)nc2c(-c3ccc(OC)nc3C)c(C)nn12 &field=Total Cell Count returns 242

GET /value?item= CCCCC1=NC2(CCCC2)C(=O)N1Cc1ccc(-c2ccccc2-c2nnn[nH]2)cc1 &field=Total Cell Count returns 175

GET /value?item= CC(C)(C)c1cc(NC(=O)Nc2ccc(-c3cn4c(n3)sc3cc(OCCN5CCOCC5)ccc34)cc2)no1 &field=Total Cell Count returns 98

GET /value?item= Cc1noc(-c2ccc(-c3ccc(CC(=O)O)cc3)cc2)c1NC(=O)O[C@H](C)c1ccccc1Cl &field=Total Cell Count returns 241

GET /value?item= O=C(NCCN1CCC(n2c(=O)[nH]c3cc(Cl)ccc32)CC1)c1ccc(F)cc1 [HALOPEMIDE] &field=Total Cell Count returns 197

Could I get Total Cell Count for every one of these entries?
1. COC[C@@H](c1ccc(C(F)(F)F)cc1)N1CCN(C2(C)CCN(C(=O)c3c(C)ncnc3C)CC2)C[C@@H]1C.O=C(O)/C=C\C(=O)O [VICRIVIROC MALEATE]
2. NCCc1cn(S(=O)(=O)c2c(Cl)nc3sccn23)c2ccccc12.O=C(O)C(=O)O
3. CN(C)C(=O)Cn1cc(-c2ccc(-c3cncc4ccccc34)cc2)cn1

Data returned:
140
127
149

###

system: Fibroblast; experiment: Multiplex assay against human fibroblast; type: toxicity, cell-based; details: 12 h, 1 µM, compound concentration 1 uM, replicate 2
reported metric: Population Hoechst High Intensity Objects (%)
One number for each entry, in %.

These solved cases illustrate the format of a correct answer.
GET /value?item= CC(/C=C1\SC(=S)N(CCCC(=O)Nc2ccc(C(=O)O)c(O)c2)C1=O)=C\c1ccccc1 &field=Population Hoechst High Intensity Objects (%) returns 3

GET /value?item= CCCOc1ccc2[nH]cc(C3=CCNCC3)c2n1.Cl &field=Population Hoechst High Intensity Objects (%) returns 0

GET /value?item= CN[C@@H](C)C(=O)N[C@H](C(=O)N1CCC[C@H]1C(=O)Nc1snnc1-c1ccccc1)C1CCCCC1 [GDC-0152] &field=Population Hoechst High Intensity Objects (%) returns 6

GET /value?item= O=C1[C@H](Cc2ccc(O)cc2)N2C(=O)CCN(C(=O)NCc3ccccc3)[C@H]2CN1Cc1cccc2ccccc12 &field=Population Hoechst High Intensity Objects (%) returns 2

GET /value?item= NCCc1cn(S(=O)(=O)c2c(Cl)nc3sccn23)c2ccccc12.O=C(O)C(=O)O &field=Population Hoechst High Intensity Objects (%) returns 3

Could I get Population Hoechst High Intensity Objects (%) for every one of these entries?
1. CN1CCN(c2cc(-c3ccccc3)nc(N)n2)CC1
2. CCCCCC(O)/C=C/[C@H]1C(=O)CC(O)C1C/C=C\CCCC(=O)O (stereo partly drawn)
3. Cc1cccc(NC(=O)CN2CCC(c3ccccn3)CC2)c1.Cl.Cl

Data returned:
1: 5; 2: 2; 3: 6

Could I get Population Hoechst High Intensity Objects (%) for every one of these entries?
1. O=C(NCCN1CCC(n2c(=O)[nH]c3cc(Cl)ccc32)CC1)c1ccc(F)cc1 [HALOPEMIDE]
2. Cc1noc(-c2ccc(-c3ccc(CC(=O)O)cc3)cc2)c1NC(=O)O[C@H](C)c1ccccc1Cl
3. C[C@H](N)COC(=O)[C@@H](CCCCN)NC(=O)Cc1c(-c2ccc3ccccc3c2)[nH]c2c1ccc1ccccc12
4. CC(C)COc1ccc(CNC(=O)N(Cc2ccc(F)cc2)C2CCN(C)CC2)cc1 [PIMAVANSERIN]
5. CCCCC1=NC2(CCCC2)C(=O)N1Cc1ccc(-c2ccccc2-c2nnn[nH]2)cc1 [IRBESARTAN]
6. N#Cc1c(Oc2cccc(OS(=O)(=O)CCCC(F)(F)F)c2)cccc1C(F)(F)F
7. COc1ccccc1N1CCN(C[C@@H](C(=O)NC(C)(C)C)c2ccccc2)CC1.Cl.Cl
8. Cc1onc(-c2ccccc2Cl)c1C(=O)N(C)c1ccc(Cl)cc1

Data returned:
1: 7; 2: 5; 3: 4; 4: 1; 5: 3; 6: 7; 7: 5; 8: 9

Could I get Population Hoechst High Intensity Objects (%) for every one of these entries?
1. CCc1cc2cc(NS(=O)(=O)c3ccc(C#N)cc3)ccc2n(CC)c1=O
2. Br.CS(=O)(=O)Nc1c(O)ccc2c1CCCC2C1=NCCN1 (stereo not drawn)

Data returned:
[6, 8]

###

test system: HEK-293T; assay: Multiplex assay against HEK293T; type: toxicity, cell-based; details: human, 24 h, 1 µM, compound concentration 1 uM, replicate 2
reported metric: Total Cell Count
One number for each entry.

These solved cases illustrate the format of a correct answer.
GET /value?item= Cc1onc(-c2ccccc2Cl)c1C(=O)N(C)c1ccc(Cl)cc1 &field=Total Cell Count returns 383

GET /value?item= N#Cc1cc(F)cc(-c2nc(-c3ccc(F)cn3)no2)c1 &field=Total Cell Count returns 463

GET /value?item= NCCc1cn(S(=O)(=O)c2c(Cl)nc3sccn23)c2ccccc12.O=C(O)C(=O)O &field=Total Cell Count returns 438

GET /value?item= CC(C)COc1ccc(CNC(=O)N(Cc2ccc(F)cc2)C2CCN(C)CC2)cc1 [PIMAVANSERIN] &field=Total Cell Count returns 394

GET /value?item= C[C@H](N)COC(=O)[C@@H](CCCCN)NC(=O)Cc1c(-c2ccc3ccccc3c2)[nH]c2c1ccc1ccccc12 &field=Total Cell Count returns 352

Could I get Total Cell Count for every one of these entries?
1. O=C(NCCN1CCC(n2c(=O)[nH]c3cc(Cl)ccc32)CC1)c1ccc(F)cc1 [HALOPEMIDE]
2. CCCCC(=O)N(Cc1ccc(-c2ccccc2-c2nnn[nH]2)cc1)[C@H](C(=O)O)C(C)C
3. CCCCCC(O)/C=C/[C@H]1C(=O)CC(O)C1C/C=C\CCCC(=O)O (stereo partly drawn)
4. CC[C@@H](C)Nc1nc(C)nc2c(-c3ccc(OC)nc3C)c(C)nn12 [PEXACERFONT]
5. Cc1cccc(NC(=O)CN2CCC(c3ccccn3)CC2)c1.Cl.Cl

Data returned:
[508, 429, 492, 387, 339]
